Ref: the supplement of paper PMC6555819

- System: PPARg:RXRa DBDmut IVT, anti-RXR (DBD mutation: RXRa K156A/R161A, NR concentration 270 nM, RXRa partner concentration 90 nM)
- Run Description: PBM binding z-score (relative to random genomic background probes); higher = stronger binding; sequences stand for … in GC…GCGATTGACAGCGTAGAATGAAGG
Assignment: determine reported PBM binding z-score for the given sequences.
Answers are plain numbers.

# Biopolymer Sequence, PBM binding z-score
records = [
    ("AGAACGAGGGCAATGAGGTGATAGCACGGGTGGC", 3.36),
    ("CCGAGTAGGTTATGGGGCTTTCAGGCAACGGTGA", 3.12),
]

List reported PBM binding z-score for each of these sequences:
1. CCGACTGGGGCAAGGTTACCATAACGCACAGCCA
2. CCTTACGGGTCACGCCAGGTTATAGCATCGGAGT
3. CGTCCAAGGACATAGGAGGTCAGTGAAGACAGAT
4. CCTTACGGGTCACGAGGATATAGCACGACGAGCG

*A*
[3.29, 3.85, 0.24, 3.74]

* * *

- Tested on: PXR:RXRa (NR concentration 270 nM, RXRa partner concentration 90 nM)
- Run Description: PBM binding z-score (relative to random genomic background probes); higher = stronger binding; sequences stand for … in GC…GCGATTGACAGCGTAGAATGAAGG
Each entry falls in a class defined on PBM binding z-score; the bands are bin 0 = under 0.6, bin 1 = from 0.6 up to 5, bin 2 = 5 and over

Use the examples below as a reference point.
# Biopolymer Sequence, Assigned Category
rows = [
    ("CTCGAAAGGTCGTGCTCAGGTCAGTATACCAAAC", "bin 2"),
    ("CCTAGTTGGTCAAGGGCACACACGCTATAGGTAC", "bin 0"),
    ("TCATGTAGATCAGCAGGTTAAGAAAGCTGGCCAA", "bin 0"),
    ("TGAATGAGGTTATAAGTTCAGGGAACGTTGCAAA", "bin 1"),
    ("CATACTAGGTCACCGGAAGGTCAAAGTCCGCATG", "bin 2"),
    ("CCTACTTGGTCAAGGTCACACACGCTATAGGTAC", "bin 1"),
]

*Q* Kindly identify the class of "TGTCATAGTTCAAAGGTAACGTAAGTATCCACAC" .
*A* bin 1

*Q* Try this sequence too: "TCTTGTAGATCAGCAGGTTAAGAAAGCTGGCCAA"
*A* bin 0

* * *

What PBM binding z-score was measured for each of the following?
- System: RARb:RXRa (NR concentration 270 nM, RXRa partner concentration 90 nM)
- Run Description: PBM binding z-score (relative to random genomic background probes); higher = stronger binding; sequences stand for … in GC…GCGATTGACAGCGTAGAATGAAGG
One number for each entry.

Example results:
# Biopolymer Sequence, Val
records = [
    ("TCTTGTAGATCTATAGAGGTTAAGAAAGTGCGCT", 0.906),
    ("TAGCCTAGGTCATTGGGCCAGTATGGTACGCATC", 3.44),
    ("TATTGTAGATCAATAGAGGTTAAGAAAGTGCGCT", 0.903),
    ("CAAACTAGGTCACGCAAGGTCAAAGTCGAATGAC", 5.5),
    ("AGAATGAAGTTATACGTAGATCAGGGAAGAAAGT", -0.131),
]

Now for the sequence whose PBM binding z-score we want.
*Q* I have this sequence here, "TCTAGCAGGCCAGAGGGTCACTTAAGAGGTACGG" , and I need its recorded PBM binding z-score.
*A* 2.19

* * *

- Tested on: RARb:RXRa (NR concentration 270 nM, RXRa partner concentration 90 nM)
- Run Description: PBM binding z-score (relative to random genomic background probes); higher = stronger binding; sequences stand for … in GC…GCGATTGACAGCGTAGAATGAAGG
# if value of PBM binding z-score reaches 2, tag Satisfied; if it stays below, tag Not satisfied

# Biopolymer Sequence, Assigned Category
measured = [
    ("CCTTACGGGTCACTGACATGTTATAGCATTTGGA", "Satisfied"),
    ("CCAGACCGGTGAAAGGTAACTCAGTCTGGTACGC", "Not satisfied"),
    ("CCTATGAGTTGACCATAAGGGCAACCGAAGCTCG", "Not satisfied"),
    ("ATCTCTAGATAAGACTCAGTTCAGTGAAGAACGC", "Not satisfied"),
    ("GCATATAGGTCATACAAGGTGAAAGTCCGATTGT", "Satisfied"),
    ("CCTACGGGGCCATTCAGAGGTCATTGATCATATG", "Satisfied"),
    ("GCATATAGGTAATACAAGTTGAAAGTCCGATTGT", "Not satisfied"),
    ("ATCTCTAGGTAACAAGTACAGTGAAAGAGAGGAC", "Not satisfied"),
    ("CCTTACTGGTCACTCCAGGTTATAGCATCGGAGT", "Not satisfied"),
    ("TCTCGGAGGACACGAGGGTCAGAGCTTTCCAGAG", "Satisfied"),
]

*Q* Record "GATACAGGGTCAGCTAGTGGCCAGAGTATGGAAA" ; criterion: PBM binding z-score no lower than 2. Met?
*A* Satisfied

*Q* Now consider "CAAACTACGTCACGAAAGGTCAAAGTCGAATGAC" and answer again.
*A* Satisfied

*Q* Next sequence up: "CCGAGTAGGTTATGGGGGATTCAGGCAACGGTGA"
*A* Not satisfied

*Q* Quick one: "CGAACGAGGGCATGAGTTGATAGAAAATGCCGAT"
*A* Not satisfied

*Q* # repeat for "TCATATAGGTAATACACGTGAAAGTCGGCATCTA"
*A* Not satisfied

*Q* Same question for "ATCTCTAGGTAAACAAGTTCAGTGAATGCCGAAC" please.
*A* Not satisfied

*Q* What about this sequence? "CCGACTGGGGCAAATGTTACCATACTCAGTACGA"
*A* Not satisfied

*Q* # repeat for "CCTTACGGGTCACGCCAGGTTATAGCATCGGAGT"
*A* Satisfied

*Q* Input "TCTCGGAGGACACGAAAGGTTAGAGCTCGACATC"
*A* Satisfied

* * *

- System: PPARg DBDmut IVT, anti-PPARg (DBD mutation: PPARg1 K132A/R137A, NR concentration 270 nM)
- Run Description: PBM binding z-score (relative to random genomic background probes); higher = stronger binding; sequences stand for … in GC…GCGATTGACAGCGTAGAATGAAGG
Endpoint Name: PBM binding z-score
Give bare numbers.

Example sequences with recorded PBM binding z-score:
# Biopolymer Sequence, Val
measured = [
    ("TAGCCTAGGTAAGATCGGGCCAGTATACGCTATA", -1.02),
    ("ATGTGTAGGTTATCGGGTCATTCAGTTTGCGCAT", 2.39),
    ("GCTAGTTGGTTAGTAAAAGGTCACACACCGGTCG", 0.647),
    ("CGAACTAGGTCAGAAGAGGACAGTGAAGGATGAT", 1.51),
    ("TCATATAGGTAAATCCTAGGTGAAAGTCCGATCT", 0.675),
]

Now consider the entry below.
*Q* Field: PBM binding z-score (PPARg DBDmut IVT, anti-PPARg (DBD mutation: PPARg1 K132A/R137A, NR concentration 270 nM)). Entry: "CCGACTGGGGCAAAGGTTACCATCCTCAGTACGA"
*A* -0.948

* * *

Assignment: determine reported PBM binding z-score for the given sequences.
- Test system: VDR homodimer (NR concentration 270 nM)
- Run Description: PBM binding z-score (relative to random genomic background probes); higher = stronger binding; sequences stand for … in GC…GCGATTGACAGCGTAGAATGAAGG
One number for each entry.

Below, each entry is followed by its recorded PBM binding z-score result.
# Biopolymer Sequence, Val
measured = [
    ("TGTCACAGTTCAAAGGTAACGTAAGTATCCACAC", 2.33),
    ("TCTCCTAGGTCAACGATGGTCAGCTAATCTGCTA", 0.166),
    ("GCATATAGGTAATACAATGTGAAAGTCCGATTGT", 0.523),
    ("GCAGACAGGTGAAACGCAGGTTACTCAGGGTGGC", -0.446),
    ("CTCGAAAGGTCGTGCTCTGGTGAGTATACCAAAC", 0.997),
    ("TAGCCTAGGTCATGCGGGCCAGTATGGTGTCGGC", 0.682),
]

// input: 2 sequences below; output: PBM binding z-score for each
1. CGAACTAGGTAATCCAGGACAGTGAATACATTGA
2. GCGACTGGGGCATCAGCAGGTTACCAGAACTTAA

*A*
[-0.254, -0.517]
